# System: ATP;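 also: ATP exposure 15 min at 22 °C before imaging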
# Protocol text: switch fluorescence ratio, 500 uM ATP over buffer (Cy3 cluster intensity, sum of 5 cycles each) (fold (ratio)); higher = stronger signal-on switching upon ATP binding; sequences stand for … in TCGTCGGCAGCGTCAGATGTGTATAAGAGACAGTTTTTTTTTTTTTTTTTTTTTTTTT…TC
# Test parameters: aptamer strand: ATP DNA aptamer (quencher-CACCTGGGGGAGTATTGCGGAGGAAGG + anchor), 100 nM annealed; ATP concentration: 500 uM
Assign class 1 to entries whose switch fluorescence ratio meets or exceeds 1; assign class 0 to the rest.

Evaluate GTATAGTCGG : switch fluorescence ratio at minimum 1? class 1

Evaluate ATATACGGTA : switch fluorescence ratio at minimum 1? class 1

Evaluate CGGGGCTTAG : switch fluorescence ratio at minimum 1? class 1
